The measured values listed here are drawn from patent US20230124862A1.

# MIC per record follows
# Tested on: S. aureus
# measurement_notes: Broth microdilution MIC (Example 11)
# Assay type: cell-based, Staphylococcus aureus
# measurement_setup: Staphylococcus aureus, ATCC 29213 / MSSA, S. aureus MMX 101 (ATCC 29213); QC; MSSA; read-out: MIC
observation_type: MIC

- compound: "C[C@H]1COc2c(N3CCN(C)CC3)c(F)cc3c(=O)c(C(=O)O)cn1c23 [Levofloxacin, reference compound]"
  obs_value: "0.12 mg/L"
- compound: "C[C@@H](O)[C@H]1C(=O)N2C(C(=O)O)=C(S[C@@H]3CN[C@H](C(=O)N(C)C)C3)[C@H](C)[C@H]12"
  obs_value: "0.06 mg/L"
- compound: "CC(C)(O/N=C(\\C(=O)N[C@@H]1C(=O)N2C(C(=O)[O-])=C(C[n+]3ccccc3)CS[C@H]12)c1csc(N)n1)C(=O)O"
  obs_value: "8 mg/L"
- compound: "CC[C@H]1OC(=O)[C@H](C)[C@@H](O[C@H]2C[C@@](C)(OC)[C@@H](O)[C@H](C)O2)[C@H](C)[C@@H](O[C@@H]2O[C@H](C)C[C@H](N(C)C)[C@H]2O)[C@](C)(O)C[C@@H](C)C(=O)[C@H](C)[C@@H](O)[C@]1(C)O"
  obs_value: "0.5 mg/L"
- compound: "CCC[C@@H]1C[C@@H](C(=O)N[C@@H]([C@H]2O[C@H](SC)[C@H](O)[C@@H](O)[C@H]2O)[C@H](C)Cl)N(C)C1 [clindamycin, reference compound]"
  obs_value: "0.12 mg/L"

* * *

# measurement_notes: Particle size distribution of BisEDT samples vs processing conditions
# Assay type: physicochemical
# measurement_setup: particle size distribution of BisEDT samples
# D(10) per record follows
observation_type: D(10) (μm)

- compound: "C1C[S][Bi]([S]CC[S][Bi]2[S]CC[S]2)[S]1 [Sample 15]"
  obs_value: 0.32
- compound: "C1C[S][Bi]([S]CC[S][Bi]2[S]CC[S]2)[S]1 [Sample 9]"
  obs_value: 0.67
- compound: "C1C[S][Bi]([S]CC[S][Bi]2[S]CC[S]2)[S]1 [Sample 12]"
  obs_value: 0.37
- compound: "C1C[S][Bi]([S]CC[S][Bi]2[S]CC[S]2)[S]1 [Sample 6]"
  obs_value: 0.34
- compound: "C1C[S][Bi]([S]CC[S][Bi]2[S]CC[S]2)[S]1 [Sample 1]"
  obs_value: 0.80
- compound: "C1C[S][Bi]([S]CC[S][Bi]2[S]CC[S]2)[S]1 [Sample 13]"
  obs_value: 0.36
- compound: "C1C[S][Bi]([S]CC[S][Bi]2[S]CC[S]2)[S]1 [Sample 7]"
  obs_value: 0.39
- compound: "C1C[S][Bi]([S]CC[S][Bi]2[S]CC[S]2)[S]1 [Sample 14]"
  obs_value: 0.36
- compound: "C1C[S][Bi]([S]CC[S][Bi]2[S]CC[S]2)[S]1 [Sample 5]"
  obs_value: 0.33
- compound: "C1C[S][Bi]([S]CC[S][Bi]2[S]CC[S]2)[S]1 [Sample 3]"
  obs_value: 0.59

* * *

# MIC per record follows
# Test system: Escherichia coli
# measurement_notes: Broth microdilution MIC (Example 12)
# Assay type: cell-based
# measurement_setup: E. coli MMX 5756; ESBL
observation_type: MIC (µg/mL)

- smiles_string: "CC(C)(O/N=C(\\C(=O)N[C@@H]1C(=O)N2C(C(=O)[O-])=C(C[n+]3ccccc3)CS[C@H]12)c1csc(N)n1)C(=O)O"
  observation_type: "MIC"
  qualifying_sign: ">"
  obs_value: 64
- smiles_string: "C[C@@H](O)[C@H]1C(=O)N2C(C(=O)O)=C(S[C@@H]3CN[C@H](C(=O)N(C)C)C3)[C@H](C)[C@H]12"
  observation_type: "MIC"
  qualifying_sign: "≤"
  obs_value: 0.008
- smiles_string: "NCC[C@H](O)C(=O)N[C@@H]1C[C@H](N)[C@@H](O[C@H]2O[C@H](CN)[C@@H](O)[C@H](O)[C@H]2O)[C@H](O)[C@H]1O[C@H]1O[C@H](CO)[C@@H](O)[C@H](N)[C@H]1O"
  observation_type: "MIC"
  qualifying_sign: "="
  obs_value: 64
- smiles_string: "C[C@H]1COc2c(N3CCN(C)CC3)c(F)cc3c(=O)c(C(=O)O)cn1c23"
  observation_type: "MIC"
  qualifying_sign: "="
  obs_value: 4

* * *

# measurement_notes: Particle size distribution of BisEDT samples vs processing conditions
# Assay type: physicochemical
# measurement_setup: particle size distribution of BisEDT samples

- molecule: "C1C[S][Bi]([S]CC[S][Bi]2[S]CC[S]2)[S]1 [Sample 10]"
  D[4, 3] [μm]: 0.97
- molecule: "C1C[S][Bi]([S]CC[S][Bi]2[S]CC[S]2)[S]1 [Sample 2]"
  D[4, 3] [μm]: 2.0
- molecule: "C1C[S][Bi]([S]CC[S][Bi]2[S]CC[S]2)[S]1 [Sample 4]"
  D[4, 3] [μm]: 1.7
- molecule: "C1C[S][Bi]([S]CC[S][Bi]2[S]CC[S]2)[S]1 [Sample 3]"
  D[4, 3] [μm]: 2.3
- molecule: "C1C[S][Bi]([S]CC[S][Bi]2[S]CC[S]2)[S]1 [Sample 15]"
  D[4, 3] [μm]: 0.86
- molecule: "C1C[S][Bi]([S]CC[S][Bi]2[S]CC[S]2)[S]1 [Sample 7]"
  D[4, 3] [μm]: 1.4
- molecule: "C1C[S][Bi]([S]CC[S][Bi]2[S]CC[S]2)[S]1 [Sample 11]"
  D[4, 3] [μm]: 1.4
- molecule: "C1C[S][Bi]([S]CC[S][Bi]2[S]CC[S]2)[S]1 [Sample 13]"
  D[4, 3] [μm]: 1.2
- molecule: "C1C[S][Bi]([S]CC[S][Bi]2[S]CC[S]2)[S]1 [Sample 8]"
  D[4, 3] [μm]: 1.0
- molecule: "C1C[S][Bi]([S]CC[S][Bi]2[S]CC[S]2)[S]1 [Sample 1]"
  D[4, 3] [μm]: 2.9
- molecule: "C1C[S][Bi]([S]CC[S][Bi]2[S]CC[S]2)[S]1 [Sample 5]"
  D[4, 3] [μm]: 0.86
- molecule: "C1C[S][Bi]([S]CC[S][Bi]2[S]CC[S]2)[S]1 [Sample 6]"
  D[4, 3] [μm]: 0.98
- molecule: "C1C[S][Bi]([S]CC[S][Bi]2[S]CC[S]2)[S]1 [Sample 12]"
  D[4, 3] [μm]: 1.3
- molecule: "C1C[S][Bi]([S]CC[S][Bi]2[S]CC[S]2)[S]1 [Sample 14]"
  D[4, 3] [μm]: 1.2
- molecule: "C1C[S][Bi]([S]CC[S][Bi]2[S]CC[S]2)[S]1 [Sample 9]"
  D[4, 3] [μm]: 1.1

* * *

# System: Pseudomonas aeruginosa
# measurement_notes: Broth microdilution MIC (Example 12)
# Assay type: cell-based
# measurement_setup: P. aeruginosa CDC 250; NDM/OXA

- compound: "C[C@H]1COc2c(N3CCN(C)CC3)c(F)cc3c(=O)c(C(=O)O)cn1c23 [LVX]"
  MIC: ">8 µg/mL"
- compound: "CC(C)(O/N=C(\\C(=O)N[C@@H]1C(=O)N2C(C(=O)[O-])=C(C[n+]3ccccc3)CS[C@H]12)c1csc(N)n1)C(=O)O [CAZ]"
  MIC: ">64 µg/mL"
- compound: "C[C@@H](O)[C@H]1C(=O)N2C(C(=O)O)=C(S[C@@H]3CN[C@H](C(=O)N(C)C)C3)[C@H](C)[C@H]12 [MEM]"
  MIC: ">8 µg/mL"
- compound: "NCC[C@H](O)C(=O)N[C@@H]1C[C@H](N)[C@@H](O[C@H]2O[C@H](CN)[C@@H](O)[C@H](O)[C@H]2O)[C@H](O)[C@H]1O[C@H]1O[C@H](CO)[C@@H](O)[C@H](N)[C@H]1O [AMK]"
  MIC: ">64 µg/mL"

* * *

# Tested on: Burkholderia cepacia complex
# Assay type: cell-based, Burkholderia spp.
# measurement_setup: B. multivorans isolate 5665 (CIP-I); initial MIC testing
# MIC per record follows

- smiles_string: "C[C@H]1[C@H](NC(=O)/C(=N\\OC(C)(C)C(=O)O)c2csc(N)n2)C(=O)N1S(=O)(=O)O"
  system_name: "Burkholderia cepacia complex"
  MIC: "4 µg/mL"
- smiles_string: "NC[C@H]1O[C@H](O[C@H]2[C@H](O)[C@@H](O[C@H]3O[C@H](CO)[C@@H](O)[C@H](N)[C@H]3O)[C@H](N)C[C@@H]2N)[C@H](N)C[C@@H]1O"
  system_name: "Burkholderia cepacia complex"
  MIC: "64 µg/mL"
- smiles_string: "C[C@@H](O)[C@H]1C(=O)N2C(C(=O)O)=C(S[C@@H]3CN[C@H](C(=O)N(C)C)C3)[C@H](C)[C@H]12"
  system_name: "Burkholderia cepacia complex"
  MIC: "2 µg/mL"
- smiles_string: "NCC[C@H](O)C(=O)N[C@@H]1C[C@H](N)[C@@H](O[C@H]2O[C@H](CN)[C@@H](O)[C@H](O)[C@H]2O)[C@H](O)[C@H]1O[C@H]1O[C@H](CO)[C@@H](O)[C@H](N)[C@H]1O"
  system_name: "Burkholderia cepacia complex"
  MIC: "256 µg/mL"
